cell viability overview
System: NOMO1
assay-info: cell viability relative to DMSO control; higher = less cytotoxic
condition-set: RPMI 5 mM glucose + 10% dialyzed FBS; 48 h; 1.71 µM

molecule	cell viability
COC(=O)\C1=C\CCN(C)C1	97.6%
CNC(=O)CN1CCC(Oc2cc3c(Nc4cccc(Cl)c4F)ncnc3cc2OC)CC1	41.8%
CCOC(=O)Nc1ccc(NCc2ccc(F)cc2)nc1N	119%
CC(C)(O)/C=C\C(=O)[C@](C)(O)[C@H]1[C@H](O)C[C@]2(C)[C@@H]3CC=C4[C@@H](C=C(O)C(=O)C4(C)C)[C@]3(C)C(=O)C[C@@]12C	16%
C[C@@H](O)[C@@H]1NC(=O)[C@H](CCCCN)NC(=O)[C@@H](Cc2c[nH]c3ccccc23)NC(=O)[C@H](Cc2ccccc2)NC(=O)[C@@H](NC(=O)[C@H](N)Cc2ccccc2)CSSC[C@@H](C(=O)N[C@H](CO)[C@@H](C)O)NC1=O	92.5%
C[C@]12CC[C@H]3[C@@H](CCC/4=C/C(=O)CC[C@]34C)[C@@H]1CC[C@@H]2OC(=O)CCC5CCCC5	107%
N#C/N=C(\NCCCCCCOc1ccc(Cl)cc1)Nc1ccncc1	8.26%
CC(O)C1C2C(C)\C(=C(/N2C1=O)C(O)=O)SC3CNC(C3)C(=O)N(C)C (stereo not drawn)	88.4%

----------
System: SEM cells
assay-info: cell viability relative to DMSO control; higher = less cytotoxic
condition-set: RPMI 5 mM glucose + 10% FBS; 48 h; 1.71 µM
measurement-kind: cell viability (%)

compound	result-value
CCCC1OC2C[C@H]3[C@@H]4CCC5=CC(=O)C=C[C@]5(C)[C@H]4C(O)C[C@]3(C)[C@]2(C(=O)CO)O1 (stereo not given in full)	59.9
COC1=CC=C2/C3=N/CCN3\C(=N/C2=C1OC)NC(=O)C4=CC=CN=C4	99.6
Nc1ncnc2c1c(-c1cccc(OCc3ccccc3)c1)cn2C1CC(CN2CCCC2)C1 (stereo not given)	95.3
OC(CN1CCN(c2cccc(Cl)c2)CC1)C(c1ccccc1)c1ccccc1 (stereo not given)	6.74
COc1cc(CNC(=O)CCCC/C=C/C(C)C)ccc1O	19.3

----------
cell viability overview
System: SEM cells
assay-info: cell viability relative to DMSO control; higher = less cytotoxic
condition-set: HPLM + 10% dialyzed FBS; 48 h; 0.0211 µM

compound	unit-abbreviation	cell viability
O=C(/C=C/c1ccc(O)cc1)c1ccc(O)cc1O	%	108
N#C[C@H](O[C@@H]1O[C@H](CO[C@@H]2O[C@H](CO)[C@@H](O)[C@H](O)[C@H]2O)[C@@H](O)[C@H](O)[C@H]1O)c1ccccc1	%	127
Cc1ncc([N+](=O)[O-])n1CC(C)O (configuration not stated)	%	75.5
CNC(=O)Nc1ccc(-c2nc(N3CC4CCC(C3)O4)c3cnn(C4CCC5(CC4)OCCO5)c3n2)cc1	%	83.9
CC(C)C[C@H](NC(=O)[C@@H](O)[C@H](N)Cc1ccccc1)C(=O)O	%	131
Nc1ncnc2c1c(-c1cccc(OCc3ccccc3)c1)cn2C1CC(CN2CCCC2)C1 (configuration not stated)	%	108
CON(C)C(=O)N1/N=C(S[C@@]1(CCCN)C2=CC=CC=C2)/C3=CC(=CC=C3F)F	%	21.7
C[C@]12CCC\3=C\4CCC(=O)\C=C4CC[C@H]3[C@@H]1CC[C@@]2(O)CC#N	%	97
OC1=CC2=C(C(=C1)O)C(=O)\C(=C(/O2)C3=CC(=C(O)C=C3)O)O	%	99.4
C[C@@]1(C(=O)Nc2ccc(F)nc2)CCCN1c1nc(Nc2cc(C3CC3)[nH]n2)c2cccn2n1	%	97.2
COC(=O)N1CC2(CC2)C[C@H](C(=O)NO)[C@H]1C(=O)N1CCN(c2ccccc2)CC1	%	116
Cc1c[nH]c(-c2cnc(NCCNc3ccc(C#N)cn3)nc2-c2ccc(Cl)cc2Cl)n1	%	65.9
CCOc1cc(CC(=O)N[C@@H](CC(C)C)c2ccccc2N2CCCCC2)ccc1C(=O)O	%	106
CC(=O)[C@]1(O)Cc2c(O)c3c(c(O)c2[C@@H](O[C@H]2C[C@H](N)[C@H](O)[C@H](C)O2)C1)C(=O)c1ccccc1C3=O	%	124
CC(COc1ccccc1)N(CCCl)Cc1ccccc1 (configuration not stated)	%	110
CCOc1ccc(Cc2cc([C@@H]3O[C@H](CO)[C@@H](O)[C@H](O)[C@H]3O)ccc2Cl)cc1	%	107
CC/1=C(\O)C(=O)\C=C2/C1=C/C=C3\[C@@]2(C)CC[C@@]4(C)[C@@H]5C[C@@](C)(CC[C@]5(C)CC[C@]34C)C(O)=O	%	119
N#Cc1ccc(C(c2ccc(C#N)cc2)n2cncn2)cc1	%	130
O=C1NC(=O)/C(=C/c2ccc(-c3ccc(F)cc3O)o2)S1	%	122
CC(C)Cc1ccc(C(C)C(=O)O)cc1 (configuration not stated)	%	78.6
Cc1nc(Nc2n[nH]c3c2CN(C(=O)N[C@H](CN(C)C)c2ccccc2)C3(C)C)c2sccc2n1	%	66.4
N#C/C(C(=O)c1ccc(Cl)cc1Cl)=C1/NC(=O)c2ccc(Cl)cc2N1	%	125
